Ref: patent US20150290319A1

molecular target: T1, Clostridium difficile toxin B (whole toxin B) (Clostridium difficile); test: biolayer interferometry (Octet QKe); biotinylated antibody on streptavidin sensor, toxin B 50-0.78 nM
T1 construct: also called TcdB; tcdB
Recorded measurements of koff, one per entry

{"Binder": "CAN46G4 (antibody, V domains shown, also called CAN46G4-1-2; murine CAN46G4) VH: EVQLLQSGPELVKPGASVKISCKASDYSFTGYYMHWVKQSHVKSLEWIGRIFPYNGAASYNQNFKDKATLTVDKSSSTAYMELHSLTSEDSAVYYCTRWLRVYFDYWGQGTTLTVSS VL: EKVLTQSPAIMSASPGEEVTMTCSASSSVSYMHWYQQKSSTSPKLWIYETSKLAFGVPGRFSGSGSGNSYSLTISSMEAEDVATYYCFQGSGYPFTFGSGTKLEVK", "koff [s⁻¹]": 0.000101}
{"Binder": "CAN46G19 (antibody, V domains shown, also called CAN46G19-3-2; murine CAN46G19) VH: EVQLLQSGPELVKPGTSVKISCKASGYSFTGYYIHWVKQTHVKSLEWVGRIFPYNGAASYNQNFKGKATLTVDKSSTTAYMELHSLTSEDSAVYFCARWLRVYFDYWGQGTTLTVSS VL: ENVLTQSPTIMSASPGEEVTMTCSASSSVTYMHWYQQKSITSPKLWIYETSKLASGVPGRFSGSGSGNSYSLTISSMEAEDVATYYCFQGSGYPFTFGSGTKLEIK", "koff [s⁻¹]": 0.000145}
{"Binder": "CAN33G1 (antibody, V domains shown, also called murine CAN33G1; CAN33 mAb) VH: EVQLQQSGPDLVKPGASVKISCKASGYSFTGYYMHWVKQSHGKSLEWIGRVNPYNGDTNYNQNFKDKAILTVDKSASTAYMEFRSLTSEDSAVYYCTRSNWENYFDYWGQGSTLTVSS VL: DIQLTQSSSSFSVSLGDRVTITCKASEDIYNRLAWYQQRPGNAPRLLISGATSLETGIPSRFSGSGSGKEYTLSIASLQTEDFVTYYCQQYWNIPTFGGGTRLEIK", "koff [s⁻¹]": 0.000591}
{"Binder": "CAN46G13 (antibody, V domains shown, also called CAN46G13-1-5; murine CAN46G13) VH: EVQLLQSGPELVKPGTSVKISCKASGYSFTGYYIHWVKQTHVKSLEWVGRIFPYNGAASYNQNFKGKATLTVDKSSSTAYMELHSLTSEDSAVYFCARWLRVYFDYWGQGTTLTVSS VL: EIVLTQSPAIMSTSPGEKVTMSCSASSSVTYMHWYQQKSITSPKLWIYETSKLASGVPGRFSGSGSGNSYSLTISSMEAEDVATYYCFQGSGYPFTFGSGTKLEIK", "koff [s⁻¹]": 0.000149}
